- EXPERIMENT DESCRIPTION: Compatibility with cosmetics additives (absence of precipitates and/or severe discolorations)
- Assay type: physicochemical
- EXPERIMENTAL PARAMETERS: Example 6B: up to 4 parts additive to 100 parts of 15% K sorbate, 30% Na benzoate, 5% phenoxyethanol, 50% water
READOUT LABEL: compatibility of additive with preparation

COMPOUND | RESULT
CCCCNC(=O)OCC#CI [iodopropynylbutyl carbamate] | sufficiently compatible
CCOC(=O)c1ccc(O)cc1 | sufficiently compatible
COc1ccc(O)c(C(C)(C)C)c1 [3-tert-butyl-4-hydroxyanisole] | sufficiently compatible
OCCc1ccccc1 | sufficiently compatible
CC(C)=CCCC(C)=CCCC(C)=CCO | sufficiently compatible
O=C1O[C@H]([C@@H](O)CO)C([O-])=C1O.[Na+] [sodium ascorbate] | sufficiently compatible
O=C([O-])C(O)c1ccccc1.[K+] (stereo not drawn) [potassium salt of mandelic acid] | sufficiently compatible
Cc1cc(C(C)(C)C)c(O)c(C(C)(C)C)c1 | sufficiently compatible
